target.entity: cofactor-independent phosphoglycerate mutase (iPGAM) (Brugia malayi)
Construct: gene ipgm-1; Full-length, histidine-tagged
experimental.details: coupled enzyme assay (NADH absorbance at […] nm), luminescence (Kinase-Glo) confirmation
Format: biochemical
quantity: IC50

Any idea what IC50 was measured for CCc1cc2c[n+](C3CCCCC3)sc2s1 ?
> 10 µM

* * *

target.entity: cofactor-independent phosphoglycerate mutase (iPGAM) (Brugia malayi, UniProt Q4VWF8)
Construct: gene ipgm-1; Full-length, histidine-tagged
Sequence (Q4VWF8 1-515): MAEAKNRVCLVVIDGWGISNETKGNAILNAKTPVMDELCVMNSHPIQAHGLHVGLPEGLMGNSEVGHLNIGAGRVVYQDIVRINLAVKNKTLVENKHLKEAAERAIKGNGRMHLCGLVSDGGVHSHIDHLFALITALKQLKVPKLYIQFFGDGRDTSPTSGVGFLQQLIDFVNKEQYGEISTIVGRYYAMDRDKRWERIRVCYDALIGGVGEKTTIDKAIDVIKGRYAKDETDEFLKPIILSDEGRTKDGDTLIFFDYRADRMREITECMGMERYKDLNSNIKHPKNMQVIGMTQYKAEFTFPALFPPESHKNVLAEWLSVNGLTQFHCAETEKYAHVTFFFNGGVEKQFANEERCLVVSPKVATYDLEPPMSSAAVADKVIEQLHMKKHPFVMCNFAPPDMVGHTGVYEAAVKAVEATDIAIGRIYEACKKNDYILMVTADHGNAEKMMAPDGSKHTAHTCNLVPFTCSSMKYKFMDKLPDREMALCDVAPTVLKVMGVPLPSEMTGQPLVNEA
experimental.details: coupled enzyme assay (NADH absorbance at […] nm), dose-response; luminescence (Kinase-Glo) confirmation
Assay type: biochemical
pIC50: −log10 of the molar value.
quantity: pIC50

Any idea what pIC50 was measured for Nc1cc2cccnc2c2ncccc12 ?
< 5.00
